System: MS2 coat protein
test: apparent KD of MS2 coat protein; higher = weaker reporter binding
experimental.conditions: Eterna round: R107; input ligand: none
Entries and their apparent KD of MS2 coat protein values follow.
Quick note: give the figure in µM, leave out the unit.

Illustrative cases are given below, each with its answer.
ACGAACGCACCUGAGGAUCACCCAGGUGAUACCAGCCUGGAAACAGGCCCUUGGCAGCACCUAAAAUAAAGGUAACGUUCGAAUA [TheoAX7 #MicroSwitchBubble #AlternativeMS2]    0.0742
GAUAUGUAUCGAAGGAGCGGCCCUUGAUCCUCAUGAGACAUGAGGAUCACCCAUGUCUCGGGCCAGGUAGGUCGCGAUAUAUAUC [Astros-omei-mod3]    0.0184

Data point: UUACAUGAGGAUCACCCAUGUCAUACAGAAGGAGCGUCACAUAAGACAGGUAGGUCGCUGUUAUUUAAUACUAUUAUAUCCUCUA [JR_Nu_ExcArginiA_Sub027] ; apparent KD of MS2 coat protein = 0.0337

Data point: CUGACGGACUCGGCCGCCACUGAUAGUAGGACAUGAGGAUCACCCAUGUAAACGAACCUCAUAGCCAGGACCGGGAGUCACGAAG [Same State Tryptophan B GF 22] ; apparent KD of MS2 coat protein = 0.204

Data point: UUGUUAUACGGAAGGAGCGUGUAAGAUUAAGAACAUGAGGAUCACCCAUGUUUUAAGGGAACACAGGUAGGUCGCCGUAUAGUGG [11.P] ; apparent KD of MS2 coat protein = 0.01

Data point: `AAUAGCAUGAGGAUCACCCAUGUAAAAGAUACCAGAGUGAUGAUCCUCCCUUGGCAGCUUAACGCUGAUUGAUUACAAUCAGCGA` ; apparent KD of MS2 coat protein = 0.0449
